Origin of measurements: PubChem BioAssay (NCI)

Tested on: CCRF-CEM leukemia
experimental_details: NCI tumour cell line growth inhibition, 48 h
Where a SMILES comes first, the peptide text is derived from it. Bridges are numbered along the chain shown (N, C = ends). The star is where a group is joined. Cbz = O=C(OCc1ccccc1)*
property: TGI

Before answering, review these 5 worked examples.
molecule: C#CCN(Cc1ccc2nc(-c3ccccc3)c(Cl)nc2c1)c1ccc(F)cc1
TGI: > 100 µM
//
molecule: CC(C)(C)[Si](C)(C)OCC1OC(n2cnc3c(N)ncnc32)C2OC(=S)OC12 (configuration not stated)
TGI: 59 µM
//
molecule: O=C(NCc1cn(Cc2cccc(Oc3ccccc3)c2)nn1)c1cccnc1Nc1ccc(F)cc1
TGI: > 100 µM
//
molecule: CCOc1ccc(/C=C2\N=C(c3ccccc3)OC2=O)cc1
TGI: > 100 µM
//
molecule: Cn1ncnc1[C@@H]1c2n[nH]c(=O)c3cc(F)cc(c23)N[C@H]1c1ccc(F)cc1
TGI: > 100 µM

# TGI (molecule: COc1ccc2c(c1)[C@@H](NC(C)=O)CCc1cc(OC)c(OC)c(OC)c1-2 ) is > 100 µM

# TGI (molecule: N=c1sc2ccccc2n1CCS (tested in a mixture with another compound) ) is > 100 µM

# TGI (molecule: O=C1CSCC(=O)Nc2ccccc2N1 ) is > 100 µM

# TGI (molecule: O=C(O)c1ccc(N(/C=C/C(=O)C(F)(F)F)Cc2ccc(Cl)cc2)cc1 ) is > 100 µM

# TGI (molecule: Nc1ccccc1N ) is > 100 µM

# TGI (molecule: Cc1c(Cl)cccc1C(=O)Nc1nc2c(s1)CN(C(=O)Nc1cccc(C(F)(F)F)c1)CC2 ) is > 50 µM

# TGI (molecule: CN(C)CC1CC/C(=C\c2ccc(Cl)c(Cl)c2)C1=O (configuration not stated) ) is 22.7 µM

# TGI (molecule: C=CCOC(=O)Cn1cnc2c(N)ncnc21 ) is > 100 µM

# TGI (molecule: CNC(=O)C1CCCCNC(=O)CCC(NC(=O)OCc2ccccc2)C(=O)N1 (stereo not drawn) (Cbz-Glu-Lys-NHMe; lactam 1-2; configuration not given here) ) is > 100 µM

# TGI (molecule: COc1cc2cc(NCc3cccc(Cl)c3)nc(C)c2cc1OC ) is > 100 µM

# TGI (molecule: O=C(Cc1ccccc1)NN1C(=O)C(Cl)C1c1ccc(Cl)cc1 (configuration not stated) ) is > 100 µM

# TGI (molecule: COc1ccc(/C=C/C(=O)c2cc(OC)cc(OC)c2)cc1 ) is 10.1 µM

# TGI (molecule: Cc1cc(N(CCC#N)CCC#N)ccc1/C=C(\NC(=O)/C=C/c1ccccc1)C(=O)N=[N+]=[N-] ) is > 100 µM

# TGI (molecule: COC(=NC(C)C)NC(C)C ) is > 100 µM

###

Let's look at some compounds and their measured TGI.
Test system: LOX IMVI melanoma
experimental_details: NCI tumour cell line growth inhibition, 48 h

Before answering, review these 4 worked examples.
compound: COc1nc(NC2OC(COC(C)=O)C(OC(C)=O)C(OC(C)=O)C2OC(C)=O)c(N=CC=Nc2c(NC3OC(COC(C)=O)C(OC(C)=O)C(OC(C)=O)C3OC(C)=O)nc(OC)[nH]c2=O)c(=O)[nH]1 (stereo not drawn)
measured_target: LOX IMVI melanoma
property: TGI
observed_value: > 100 µM
--
compound: COC(=O)C(Cc1ccccc1)NC(=O)CSc1nnc(COc2ccc(Cl)cc2)n1-c1ccccc1 (stereo not drawn)
measured_target: LOX IMVI melanoma
property: TGI
observed_value: 28.3 µM
--
compound: COC(=NC(C)C)NC(C)C
measured_target: LOX IMVI melanoma
property: TGI
observed_value: > 100 µM
--
compound: CC1=C(O)C(=O)C=C2C1=CC=C1[C@@]2(C)CC[C@@]2(C)C3C[C@@H](C)C(=O)[C@@H](O)[C@]3(C)CC[C@]12C (stereo partly drawn)
measured_target: LOX IMVI melanoma
property: TGI
observed_value: 3.02 µM

Now, please, on to the next compound.
# TGI (compound: N#CC(C#N)=c1c(=O)c2c3ccccc3cc3cccc1c32 ) is > 100 µM

###

Let's look at some molecules and their measured GI50.
Test system: LOX IMVI melanoma
experimental_details: NCI tumour cell line growth inhibition, 48 h

Before answering, review these 3 worked examples.
molecule: O=c1nc2n(-c3cccc(Cl)c3)c3ccc([N+](=O)[O-])cc3cc-2c(=O)[nH]1
GI50: 1930 nM
--
molecule: C[C@@H]1CN2[C@H]3[C@@H]1CC[C@]31CCC(=O)O[C@]1(C)[C@H]1CC[C@H]3CCC=C3[C@@H]12
GI50: > 30000 nM
--
molecule: O=C1NN2CC(c3ccccc3)=NN=C2c2ccccc21
GI50: 22600 nM

# GI50 (molecule: O=c1[nH]c2ccccc2n1C1CCNCC1 ) is > 100000 nM

# GI50 (molecule: CN1CCN(Cc2ccc(NC(=O)c3cncc(C#Cc4cnc(N)c5ncccc45)c3)cc2C(F)(F)F)CC1 ) is 216 nM

# GI50 (molecule: COc1cc2c(c3oc(-c4ccc(O)cc4)c(O)c(=O)c13)CCC(C)(C)O2 ) is 104 nM

# GI50 (molecule: Cn1cc(-c2ccc3nc(-c4ccc(CC(=O)Nc5cc(C(C)(C)C)no5)cc4)cnc3c2)cn1 ) is 36 nM

# GI50 (molecule: O=C(NCc1cn(Cc2cccc(Oc3ccccc3)c2)nn1)c1cccnc1Nc1ccc(F)cc1 ) is 61300 nM

# GI50 (molecule: N#CC1=C(N)Oc2c(sc3c(Br)cccc23)C1c1ccc([N+](=O)[O-])cc1 (centres undefined) ) is 127 nM

###

Tested on: MDA-N
experimental_details: NCI tumour cell line growth inhibition, 48 h
property: TGI

Before answering, review these 4 worked examples.
compound: Fc1ccc(Nc2nc(Cl)c3[nH]cnc3n2)cc1Cl
TGI: > 100 µM

compound: COc1ccc2c(O)c(Oc3ccc(Cl)cc3)c(=O)oc2c1
TGI: > 100 µM

compound: COc1cc(CN=c2nc(N(C)C)ss2)cc(OC)c1OC
TGI: > 10 µM

compound: C=C(CO)C(=O)OC1CC(=C)C2CC(O)C(C)C2C2OC(=O)C(=C)C12 (stereo not given)
TGI: 38 µM

Now, please, on to the next compound.
# TGI (compound: COC(=O)/C=C1\SC2(OC1=Nc1ccccc1)C1CC3CC(C1)CC2C3 (stereo not given) ) is > 100 µM

###

Tested on: MOLT-4 leukemia
experimental_details: NCI tumour cell line growth inhibition, 48 h
property: TGI

molecule: COc1ccc(N2C(=O)c3cc([N+](=O)[O-])cnc3S2(=O)=O)cc1
observed_value: > 100 µM
//
molecule: CC(C)=CCC/C(C)=C/CC/C(C)=C/CSC[C@H](NC(=O)CCCCCN1CCN(C)CC1)C(=O)NC1CCCCCC1
observed_value: 7.48 µM

# TGI (molecule: CCCCNC(=O)OCCN=c1c2ccccc2ccc2ccccc12 ) is > 100 µM

# TGI (molecule: CC(=O)OCC1C(=O)OCC1C(=O)N1Cc2cc3ccccc3nc2C1 (stereo not given) ) is 4.25 µM

# TGI (molecule: Cc1nc2ccc(F)cc2c2c1CCS2 ) is > 100 µM

# TGI (molecule: N#Cc1cc2c(cc1C#N)SCCSCCCSCCS2 ) is > 100 µM

# TGI (molecule: CC(C)(C)CC(C)(C)c1ccc(OCCO)cc1 ) is > 75 µg/mL

###

Test system: A549 NSCLC
experimental_details: NCI tumour cell line growth inhibition, 48 h; in the data active means GI50 below about 0.43 µM; inactive means the rest
Choose one outcome from this list and give only that: 1 (active), 0 (inactive)

smiles_data: COC(=O)c1c2c(c(C)[n+]([O-])c1C)C(=O)C(NCc1ccc(OC)cc1)=CC2=O
category: 0
--
smiles_data: CC1=C(CCCOC(=O)[C@H](N)CC(C)C)C2=C(C)C3(CC3)[C@@](C)(O)C(=O)C2=C1
category: 0
--
smiles_data: COc1ccc(-c2csc3c2-n2cccc2C3=O)cc1
category: 1

Could you please tell me the result logged for O=C1NC(=O)C(c2c[nH]c3ccccc23)=C1c1c[nH]c2ccccc12 in this assay?
0

Could you please tell me the result logged for O=C(O)c1ccc(N(/C=C/C(=O)C(F)(F)F)Cc2ccc(Cl)cc2)cc1 in this assay?
0

Could you please tell me the result logged for O=S(=O)(NCCCNc1cc(-c2cn(-c3ccccc3)nc2-c2cccc(O)c2)ccn1)c1ccc(C(F)(F)F)cc1 in this assay?
0

Could you please tell me the result logged for CC(=O)/C(=C\c1ccc(Cl)cc1)c1ccccc1 in this assay?
1

Could you please tell me the result logged for CNC(=O)Oc1cc(C(C)C)ccc1Sc1ccc(C(C)C)cc1OC(=O)NC in this assay?
0

Could you please tell me the result logged for CCC(=C(c1ccc(OCCN2CCCCC2)cc1)c1ccc(OCCN2CCCCC2)cc1)c1ccc(Cl)cc1 in this assay?
0

Could you please tell me the result logged for Cn1cc(-c2ccc3nc(-c4ccc(CC(=O)Nc5cc(C(C)(C)C)no5)cc4)cnc3c2)cn1 in this assay?
1
